# measuredOn: human S1P1 (Homo sapiens, UniProt P21453)
# Construct: expressed in transfected cells; membrane fraction used
# Sequence (P21453 whole entry): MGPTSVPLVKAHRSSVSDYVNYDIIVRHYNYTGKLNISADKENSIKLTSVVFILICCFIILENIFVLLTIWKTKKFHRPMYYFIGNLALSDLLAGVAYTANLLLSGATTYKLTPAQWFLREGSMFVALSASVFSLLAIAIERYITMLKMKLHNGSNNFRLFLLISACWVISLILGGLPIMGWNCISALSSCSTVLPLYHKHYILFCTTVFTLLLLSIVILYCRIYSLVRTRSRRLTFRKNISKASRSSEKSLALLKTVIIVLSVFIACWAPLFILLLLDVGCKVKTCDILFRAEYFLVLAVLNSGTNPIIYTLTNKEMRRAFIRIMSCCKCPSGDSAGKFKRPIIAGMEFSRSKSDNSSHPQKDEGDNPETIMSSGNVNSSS
# assayText: GTP[γ-35S] bond assay using the membrane of a human S1P1 expressing cell (S1P1 agonist activity)
# Type: biochemical
# conditionNotes: membrane of human S1P1 expressing CHO cell; concentration causing 50% of the maximum GTP[γ-35S] reaction
Friendly reminder: EC50 below 4 nM is condition met, at or above is condition not met.

| compound | discreteLabel |
| --- | --- |
| Cc1cc(-c2nc(-c3cccc4c3ccn4CC(N)=O)no2)ccc1O[C@@H](C)C(F)(F)F | condition met |
| CC(Oc1ccc(-c2nc(-c3cccc4nccn34)no2)cc1C(F)(F)F)C(F)(F)F (stereo not shown) | condition met |
| C[C@H](Oc1ccc(-c2nc(-c3ccc4[nH]cnc4c3)no2)cc1C(F)(F)F)C(F)(F)F.Cl | condition not met |
| NC(=O)Cn1ccc2c(-c3noc(-c4ccc(OC(CF)CF)c(Cl)c4)n3)cccc21 | condition met |
| CC(Oc1ccc(-c2nc(-c3cccc4c3ccn4CC(N)=O)no2)cc1C#N)C(F)(F)F (stereo not shown) | condition met |
| Cc1cc(-c2nc(-c3cccc4c3ccn4CC(=O)NCCO)no2)ccc1O[C@@H](C)C(F)(F)F | condition not met |
| NC(=O)Cn1ccc2c(-c3noc(-c4ccc(OC(CF)CF)c(C(F)(F)F)c4)n3)cccc21 | condition met |
| C=CCOc1ccc(-c2nc(-c3ccc4[nH]cnc4c3)no2)cc1C(F)(F)F | condition not met |
| CC(C)Oc1ccc(-c2nc(-c3cccc4c3ccn4CC(N)=O)no2)cc1Cl | condition not met |

====

# measuredOn: human S1P1 (Homo sapiens, UniProt P21453)
# Construct: membrane fraction used
# assayText: GTP[γ-35S] bond assay using the membrane of a human S1P1 expressing cell (S1P1 agonist activity)
# conditionNotes: membrane of human S1P1 expressing CHO cell; concentration causing 50% of the maximum GTP[γ-35S] reaction
Counter-ions that a name gives are not always drawn.
param class (str): category from EC50; see ranges bin 0 = under 4 nM, bin 1 = from 4 nM up to 7 nM, bin 2 = 7 nM and over

| molecule | discreteLabel |
| --- | --- |
| CC(Oc1ccc(-c2nc(-c3cccc4[nH]ccc34)no2)cc1C(F)(F)F)C(F)(F)F (stereo not drawn) | bin 0 |
| Cc1nc2cc(-c3noc(-c4ccc(OC(C)C(F)(F)F)c(C(F)(F)F)c4)n3)ccc2[nH]1 (stereo not drawn) [Example 2, hydrochloride] | bin 2 |
| CC(Oc1ccc(-c2nc(-c3cccc4c3CCN4C)no2)cc1C(F)(F)F)C(F)(F)F (stereo not drawn) | bin 2 |
| COCC(=O)n1ccc2c(-c3noc(-c4ccc(OC(C)C(F)(F)F)c(C(F)(F)F)c4)n3)cccc21 (stereo not drawn) | bin 1 |
| CC(Oc1ccc(-c2nc(-c3ccc4[nH]cnc4c3)no2)cc1Cl)C(F)(F)F (stereo not drawn) | bin 1 |
| CC(Oc1ccc(-c2nc(-c3ccnc4[nH]ccc34)no2)cc1C(F)(F)F)C(F)(F)F (stereo not drawn) | bin 0 |
| FC(F)(F)c1cc(-c2nc(-c3ccc4nc[nH]c4c3)no2)ccc1Oc1ccccc1 | bin 2 |
| C[C@H](Oc1ccc(-c2nc(-c3cccc4c3ccn4CC(=O)NCCO)no2)cc1C(F)(F)F)C(F)(F)F | bin 0 |
| CC(Oc1ccc(-c2nc(-c3cccc4c3ccn4CC(N)=O)no2)cc1C(F)(F)F)C(F)(F)F (stereo not drawn) | bin 1 |
| CC(Oc1ccc(-c2nc(-c3ccc4nc[nH]c4c3)no2)cc1C#N)C(F)(F)F (stereo not drawn) | bin 0 |
| C[C@@H](Oc1ccc(-c2nc(-c3ccc4[nH]cnc4c3)no2)cc1C(F)(F)F)C(F)(F)F | bin 1 |
| NC(=O)Cn1ccc2c(-c3noc(-c4cnc(OC(CF)CF)c(Cl)c4)n3)cccc21 | bin 1 |
| CC(Oc1ccc(-c2nc(-c3ccc4[nH]cnc4c3)no2)cc1C(F)(F)F)C(F)(F)F (stereo not drawn) | bin 1 |
| CC(Oc1ccc(-c2nc(-c3cccc4c3ccn4C)no2)cc1C(F)(F)F)C(F)(F)F (stereo not drawn) | bin 2 |

====

# measuredOn: human S1P1 (Homo sapiens, UniProt P21453)
# Construct: membrane fraction used
# assayText: GTP[γ-35S] bond assay using the membrane of a human S1P1 expressing cell (S1P1 agonist activity)
# conditionNotes: membrane of human S1P1 expressing CHO cell; concentration causing 50% of the maximum GTP[γ-35S] reaction
# Method: 1) Evaluation of a Receptor Agonist Activity by a GTP[γ-^35S] Bond Assay Using the Membrane of a Human S1P1 Expressing Cell The in vitro S1P1 agonist activity of the compound of the present invention was evaluated by the increase in the functional bonding activity into the G-Protein of a GTP[γ-^35S] using the membrane of a human S1P1 expressing cell. […]
pEC50: −log10 of the molar value.
assayEndpoint: pEC50

| compound | assayEndpoint | dataValue |
| --- | --- | --- |
| CC(Oc1ccc(-c2nc(-c3cccc4c3CCN4)no2)cc1C(F)(F)F)C(F)(F)F (stereo not shown) | pEC50 | 8.33 |
| CC(=O)N1CCc2c(-c3noc(-c4ccc(OC(C)C(F)(F)F)c(C(F)(F)F)c4)n3)cccc21 (stereo not shown) | pEC50 | 8.68 |
| O=C(Cn1ccc2c(-c3noc(-c4ccc(OC(CF)CF)c(Cl)c4)n3)cccc21)NCCO | pEC50 | 8.48 |
| CC(C)Oc1ccc(-c2nc(-c3cccc4c3ccn4CC(N)=O)no2)cc1C(F)(F)F | pEC50 | 8.26 |
| C[C@H](Oc1ccc(-c2nc(-c3ccc4[nH]cnc4c3)no2)cc1Cl)C(F)(F)F.Cl | pEC50 | 8.30 |
| C[C@H](Oc1ncc(-c2nc(-c3cccc4c3ccn4CC(N)=O)no2)cc1Cl)C(F)(F)F | pEC50 | 8.37 |
| C[C@@H](Oc1ccc(-c2nc(-c3ccc4[nH]cnc4c3)no2)cc1Cl)C(F)(F)F | pEC50 | 8.44 |
| CC(C)Oc1ccc(-c2nc(-c3cccc4c3ccn4CC(=O)NCCO)no2)cc1C(F)(F)F | pEC50 | 8.28 |
| CC(Oc1ccc(-c2nc(-c3cccc4c3ccn4CC(N)=O)no2)cc1Cl)C(F)(F)F (stereo not shown) | pEC50 | 8.55 |
| CC(Oc1ccc(-c2nc(-c3ccc4nc[nH]c4c3)no2)cc1C(F)F)C(F)(F)F (stereo not shown) | pEC50 | 8.43 |
| CC(Oc1ccc(-c2nc(-c3ccc4nc[nH]c4c3)no2)cc1Br)C(F)(F)F (stereo not shown) | pEC50 | 8.24 |
| Cc1c(-c2noc(-c3ccc(OC(C)C(F)(F)F)c(C(F)(F)F)c3)n2)ccc2[nH]cnc12 (stereo not shown) | pEC50 | 8.27 |
| CC(Oc1ccc(-c2nc(-c3ccc4[nH]c(N)nc4c3)no2)cc1C(F)(F)F)C(F)(F)F (stereo not shown) | pEC50 | 7.89 |
| NC(=O)Cn1ccc2c(-c3noc(-c4ccc(C5CCCC5)c(C(F)(F)F)c4)n3)cccc21 | pEC50 | 8.23 |
| FC(F)COc1ccc(-c2nc(-c3ccc4[nH]cnc4c3)no2)cc1C(F)(F)F | pEC50 | 8.21 |
| C[C@H](Oc1ccc(-c2nc(-c3cccc4c3ccn4CC(N)=O)no2)cc1C(F)(F)F)C(F)(F)F | pEC50 | 8.33 |

Where these numbers come from: patent US7678820B2
